- Tested on: HOP-92
- Assay Explanation: NCI tumour cell line growth inhibition, 48 h
Active and inactive are the calls of the source. No stated cut-off is given here; in the data, active = GI50 up to about 1.1 µM and inactive = higher.
Answer with one of the outcomes given here: active, inactive

Solved cases (3 shown):
C=C1C(=O)O[C@H]2C/C(C)=C/CC[C@@]3(C)O[C@](C)(CC[C@@H]3I)[C@@H](I)C[C@@H]12	inactive
CSCSCC(CO)NC(=O)/C=C\c1c(C)[nH]c(=O)[nH]c1=O (centres undefined)	active
O=C(Nc1ccc([N+](=O)[O-])cc1)C1C(=O)C(=O)N(c2ccc([N+](=O)[O-])cc2)C1=O (centres undefined)	inactive

Input: Each compound tested received a call. Report the one for `COc1cccc(O)c1-c1cc(=O)c2c(O)c(OC)c(OC)c(OC)c2o1` .
Output: inactive
